- Experiment notes: Antiproliferative activity against human GES-1 cells after 72 hrs by MTT assay
- Assay type: cell-based
- Settings: GES1, 72 h
Hi! Could you tag entries with IC50 below 30 µM as met, and those at or above as not met? Much appreciated.

| Structure notation | Discrete label |
| --- | --- |
| CCCSc1nc(N/N=C(\C)c2ccccc2O)c2nnn(Cc3ccccc3)c2n1 | not met |
| CCCSc1nc(N/N=C(\C)c2ccccc2O)c2nnn(Cc3ccco3)c2n1 | not met |
| CCCSc1nc(N/N=C/c2cc(OC)c(OC)c(OC)c2)c2nnn(Cc3ccccc3)c2n1 | not met |
| CCCSc1nc(N/N=C/c2c(O)ccc3ccccc23)c2nnn(Cc3ccccc3)c2n1 | met |
| COc1cc(/C=N/Nc2nc(SCc3ccccc3)nc3c2nnn3Cc2ccccc2)cc(OC)c1OC | not met |
| C#CCSc1nc(N/N=C/c2cc(OC)c(OC)c(OC)c2)c2nnn(Cc3ccccc3)c2n1 | met |
| C/C(=N\Nc1nc(SCc2ccccc2)nc2c1nnn2Cc1ccccc1)c1ccccc1O | not met |
